Assay: Metabolic stability in rhesus monkey liver microsomes assessed as compound remaining at 1 uM after 30 mins in presence of NADPH
Type: ADME, Macaca mulatta, Microsome
Conditions: read-out: Stability
observation-type: remaining at 0.5 h, 1 µM (%)
Answer with a number only, understood to be in %.

Asked: Give remaining at 0.5 h, 1 µM for the following compound: COCCCc1cc(CCCN2CCOCC2)c(Cl)c(CN(C(=O)[C@H]2CNCC[C@@]23OCc2cc(F)c(F)cc23)C2CC2)c1
Given back: 10

---

Test: Oral bioavailability in Beagle dog at 3 mg/kg
Format: ADME, organism-based, Canis lupus familiaris
Settings: in vivo
observation-type: bioavailability (%)
Answer with a number only, understood to be in %.

Asked: Give bioavailability for the following molecule: COCCCc1cc(CCCN2CCOCC2)c(Cl)c(CN(C(=O)[C@H]2CNCC[C@@]23OCc2cc(F)c(F)cc23)C2CC2)c1.Cl.Cl.Cl
Given back: 1
